Numbers sourced from the supplement of paper PMC11208160.

# measurementNotes: recombinant barcode read abundance after kanamycin selection (control-corrected) (log10(CPM+1)); higher = more efficient recombination; sequences stand for … in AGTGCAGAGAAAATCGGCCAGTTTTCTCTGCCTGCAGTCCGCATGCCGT…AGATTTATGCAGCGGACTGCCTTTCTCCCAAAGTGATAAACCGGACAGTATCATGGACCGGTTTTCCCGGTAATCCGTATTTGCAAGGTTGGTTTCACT; site = the 11-nt target
measurementName: recombinant barcode read abundance (log10)
Answers are plain numbers.

Check out these entries, answers already filled in.
seqText: TGGAGTCCTTGGGTTCTAACCTGTTGCCT (site TGGTGTCCTAG)
valueReported: 0.0821
--
seqText: GCACTAACTTGGGTTCTAACCTGTTGCCT (site GCACTAGCTAC)
valueReported: 0.216
--
seqText: TACTACCCTTGGGTTCTAACCTGTTGCCA (site TAGTATCCTTG)
valueReported: 0.0944
--
seqText: CACTATCCTTGGGTTCTAACCTGTTGCGG (site CACTAGCCTCC)
valueReported: 0.0909

# return recombinant barcode read abundance (log10) for each item in the list
1. GGGTCGGCTTGGGTTCTAACCTGTTGCGT (site GGGTCGGCTCC)
2. ATAAAGCCTTGGGTTCTAACCTGTTGCCT (site ATAAGGCCTAG)
3. GGCCCGCCTTGGGTTCTAACCTGTTGCCT (site CGCCCGCCTAG)

0.076
0.0177
0.00686

# return recombinant barcode read abundance (log10) for each item in the list
1. ACTAAGACTTGGGTTCTAACCTGTTGCTG (site AGTAAGACTTA)
2. CACGCTCCTTGGGTTCTAACCTGTTGCGT (site CACGCTCCTAC)
3. ATATTTCCTTGGGTTCTAACCTGTTGCCT (site ATATTTCCTAG)
4. GAAGTCACTTGGGTTCTAACCTGTTGCCT (site GAAGTCACTAG)
5. CTAGCGTCTTGGGTTCTAACCTGTTGCTT (site CTAGAGTCTAA)
6. ACGATTCCTTGGGTTCTAACCTGTTGCTT (site ACGATTCCTAA)
7. TCCTAATCTTGGGTTCTAACCTGTTGCTT (site TCCTAATCTAA)
8. TTGAATTCTTGGGTTCTAACCTGTTGCTT (site TTGAATTCTAA)

0.0302
0.656
0.785
1.99
0.115
0.0242
0.111
0.0275

---

For each record, write down the corresponding recombinant barcode read abundance (log10).
# measurementNotes: recombinant barcode read abundance after kanamycin selection (control-corrected) (log10(CPM+1)); higher = more efficient recombination; sequences stand for … in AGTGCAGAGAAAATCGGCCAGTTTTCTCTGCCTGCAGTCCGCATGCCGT…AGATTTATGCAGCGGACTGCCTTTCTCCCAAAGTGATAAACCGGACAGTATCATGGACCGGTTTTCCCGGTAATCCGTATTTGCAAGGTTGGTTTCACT; site = the 11-nt target

Check out these entries, answers already filled in.
seqText: CAGTGCTCTTGGGTTCTAACCTGTTGCCA (site CAGTGCTCTTG)
valueReported: 1.52
//
seqText: ACTCACACTTGGGTTCTAACCTGTTGCTT (site GGAGCTCCTCG)
valueReported: 0.00954
//
seqText: GACACCTCTTGGGTTCTAACCTGTTGCTT (site GACACCTCTAA)
valueReported: 1.03
//
seqText: GTTCCGGCTTGGGTTCTAACCTGTTGCCT (site GTTGCGGCTAG)
valueReported: 0.145

# return recombinant barcode read abundance (log10) for each item in the list
1. AAGAAGCCTTGGGTTCTAACCTGTTGCCT (site GAGAAGCCTAG)
2. TTGTCTCCTTGGGTTCTAACCTGTTGCCT (site TTGTCTCCTAG)
3. TCTAGAACTTGGGTTCTAACCTGTTGCCT (site TCTAGAGCTAG)

0.14
0.304
0.0689

---

# measurementNotes: recombinant UMI read abundance after kanamycin selection (control-corrected) (log10(CPM+1)); higher = more efficient recombination; extreme values may be limits of the assay; sequences stand for … in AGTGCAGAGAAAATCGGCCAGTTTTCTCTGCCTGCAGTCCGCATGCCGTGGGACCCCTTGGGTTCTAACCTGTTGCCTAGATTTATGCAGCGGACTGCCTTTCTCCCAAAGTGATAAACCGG…AGGTTGGTTTCACT; site = the 11-nt donor
# if value of recombinant UMI read abundance (log10) reaches 0.5, tag criterion met; if it stays below, tag criterion not met

Use the examples below as a reference point.
seqText: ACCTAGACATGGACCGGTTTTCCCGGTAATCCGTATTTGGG (site ACCTAGCCTCC)
cat: criterion not met

seqText: GTCGCCACATGGACCGGTTTTCCCGGTAATCCGTATTTGGA (site GTCGCCACTTC)
cat: criterion met

seqText: CGTGACTCATGGACCGGTTTTCCCGGTAATCCGTATTTGTA (site CGTGACTCTTA)
cat: criterion met

seqText: CCAGGGGCATGGACCGGTTTTCCCGGTAATCCGTATTTGAT (site CCAGGCGCTAT)
cat: criterion met

seqText: GAGGAATCATGGACCGGTTTTCCCGGTAATCCGTATTTGCG (site CAGGAATCTCG)
cat: criterion met

Lab note: next sequence to report on.
Form field: recombinant UMI read abundance (log10) at least 0.5? Entry: AGGATGTCATGGACCGGTTTTCCCGGTAATCCGTATTTGCA (site AGGATGTCTTG)
criterion met

---

# measurementNotes: recombinant UMI read abundance after kanamycin selection (control-corrected) (log10(CPM+1)); higher = more efficient recombination; extreme values may be limits of the assay; sequences stand for … in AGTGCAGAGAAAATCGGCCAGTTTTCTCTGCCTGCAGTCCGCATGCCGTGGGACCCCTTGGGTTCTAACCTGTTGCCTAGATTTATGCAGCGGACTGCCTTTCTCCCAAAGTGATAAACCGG…AGGTTGGTTTCACT; site = the 11-nt donor
measurementName: recombinant UMI read abundance (log10)
Give bare numbers.

seqText: AAGTAGGCATGGACCGGTTTTCCCGGTAATCCGTATTTGGC (site ATGTAGGCTGC)
recombinant UMI read abundance (log10): 1.41

# return recombinant UMI read abundance (log10) for each item in the list
1. TCTAATTCATGGACCGGTTTTCCCGGTAATCCGTATTTGCC (site TCAAATTCTGG)
2. ATAAGGCCATGGACCGGTTTTCCCGGTAATCCGTATTTGGC (site ATAAGGCCTGA)
3. TAGCTAACATGGACCGGTTTTCCCGGTAATCCGTATTTGAA (site TAGCTAACTTT)
4. GCTACTGCATGGACCGGTTTTCCCGGTAATCCGTATTTGTC (site GCTACTGCTGT)
5. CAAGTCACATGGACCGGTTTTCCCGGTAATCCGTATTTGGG (site CAGGTCACTCC)
6. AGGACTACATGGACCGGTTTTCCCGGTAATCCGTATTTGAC (site AGTACTACTGT)
7. CTCTACCCATGGACCGGTTTTCCCGGTAATCCGTATTTGCT (site CTCTACACTAG)

1: 0; 2: 0; 3: 1.09; 4: 0.512; 5: 0.0212; 6: 0.941; 7: 0.274

# return recombinant UMI read abundance (log10) for each item in the list
1. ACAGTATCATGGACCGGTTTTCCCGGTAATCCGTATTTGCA (site ACAATATCTTG)
2. GTTACTGCATGGACCGGTTTTCCCGGTAATCCGTATTTGCC (site GTTACTGCTGG)

1. 2.8
2. 1.83

Consider the sequence CCTGTGGCATGGACCGGTTTTCCCGGTAATCCGTATTTGTA (site CCTGTGGCTTA) and give its measured recombinant UMI read abundance (log10).
0.327

---

# measurementNotes: recombinant barcode read abundance after kanamycin selection (control-corrected) (log10(CPM+1)); higher = more efficient recombination; sequences stand for … in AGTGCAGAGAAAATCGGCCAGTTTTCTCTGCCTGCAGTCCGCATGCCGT…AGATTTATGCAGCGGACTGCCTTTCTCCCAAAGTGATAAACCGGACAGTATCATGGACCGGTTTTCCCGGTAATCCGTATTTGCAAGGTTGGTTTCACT; site = the 11-nt target
measurementName: recombinant barcode read abundance (log10)
Give bare numbers.

seqText: ATATGGACTTGGGTTCTAACCTGTTGCTA (site ATATGGACTTA)
valueReported: 1.62

seqText: GAACGATCTTGGGTTCTAACCTGTTGCCT (site GAACCTTCTAG)
valueReported: 0.148

seqText: ACTTCTACTTGGGTTCTAACCTGTTGCCG (site ACTTCTTCTAG)
valueReported: 0.204

seqText: CAATGGTCTTGGGTTCTAACCTGTTGCTT (site CAATGGTCTAA)
valueReported: 1.86

# return recombinant barcode read abundance (log10) for each item in the list
1. GAGCCTTCTTGGGTTCTAACCTGTTGCAG (site GAGCCTTCTCT)
2. CCAGTAGCTTGGGTTCTAACCTGTTGCCT (site CCAGAAGCTAG)
3. ACGCAGTCTTGGGTTCTAACCTGTTGCCT (site ACGCAATCTAG)
4. CACTTCCCTTGGGTTCTAACCTGTTGCTT (site CACTTCCCTAA)
5. CAACTTCCTTGGGTTCTAACCTGTTGCGT (site CGGCTTCCTAC)

1: 1.46; 2: 0.382; 3: 0.313; 4: 1.04; 5: 0.496

# return recombinant barcode read abundance (log10) for each item in the list
1. TCAGAGCCTTGGGTTCTAACCTGTTGCTG (site TCAGAGCCTCA)
2. ACCCAAGCTTGGGTTCTAACCTGTTGCCT (site ACCCAAGCTAG)
3. TGTGAGTCTTGGGTTCTAACCTGTTGCCT (site TGTGAGTCTAA)
4. GGTGACCCTTGGGTTCTAACCTGTTGCAT (site GGTGACCCTAT)
5. TACGACGCTTGGGTTCTAACCTGTTGCCT (site TATGACGCTAG)
6. CATTTCCCTTGGGTTCTAACCTGTTGCTT (site CATTTCCCTAG)
7. GTCGGTACTTGGGTTCTAACCTGTTGCCT (site GTCGGTACTAG)
8. TGCCAATCTTGGGTTCTAACCTGTTGCCT (site TGCCAATCTAG)

[1.28, 1.57, 0.0418, 2.75, 0.128, 0.246, 0.952, 0.242]

# return recombinant barcode read abundance (log10) for each item in the list
1. ACGAAGGCTTGGGTTCTAACCTGTTGCCG (site ACGAAGGCTCG)
2. TAGGCTCCTTGGGTTCTAACCTGTTGCAG (site TAGGCTCCTCT)
3. TCTTTACCTTGGGTTCTAACCTGTTGCCT (site TCTTTACCTAG)
4. GAACCTCCTTGGGTTCTAACCTGTTGCAT (site TGCGTAACTTG)
5. GTCAACCCTTGGGTTCTAACCTGTTGCTG (site GTCAAACCTCA)

1. 0.691
2. 0.429
3. 0.0757
4. 0.0548
5. 0.045
